Task for the reader: assign each of the following compounds its reported growth inhibition.
- Protocol details: NCI Yeast Anticancer Drug Screen. Data for the sgs1 mgt1 strain (AID 161);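 further: 0% = growth of cultures given vehicle only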
- Stated conditions: S. cerevisiae sgs1 mgt1 strain, at 50.0 µM, hits give high values
About 79,000 compounds went through this panel and 15% of them were active in at least one assay; those are over-represented in the sample as a whole.
Answers are plain numbers, in %.

Consider the worked cases shown below.
Compound | growth inhibition, %
O=C(c1ccccc1)c1ccccc1O | 11.4
C=CCNC(=S)NC=C(C(N)=O)C(N)=O | -22.5
Cc1nc2ccccc2c(=O)n1/N=C\c1ccc2c(c1)CCC2 | 15.8
O=C(Nc1ccccc1C(=O)N/N=C/c1ccccc1Cl)c1ccccc1Cl | 5.1
CCCCN(CCCC)C(=O)OCC | 6.35

Shift focus to the following entry.
Query (compound): CC(=O)OC1COC(N2C(=O)C(=O)c3cc(Br)c([N+](=O)[O-])cc32)C(OC(C)=O)C1OC(C)=O (stereo unspecified) ; field requested: growth inhibition
-10.6
